Recorded measurements of fold affinity vs original, one per entry
biological target: binding partner of C5A (XPA23); test: Biacore
Provide the reading as a plain figure in fold.

Binder	fold affinity vs original, fold
C5A (XPA23) VH Y101H (antibody, V domains shown) VH: EVQLLESGGGLVQPGGSLRLSCAASGFTFSKYFMFWVRQAPGKGLEWVSVISPSGGMTRYADSVKGRFTISRDNSKNTLYLQMNSLRAEDTAVYYCARVGHGGNSDYWGQGTLVTVSS VL: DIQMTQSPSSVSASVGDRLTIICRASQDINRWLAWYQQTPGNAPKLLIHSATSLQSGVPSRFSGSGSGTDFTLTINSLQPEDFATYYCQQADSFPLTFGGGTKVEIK	0.04

Consider the record given below.
Given C5A (XPA23) VH Y107S (antibody, V domains shown) VH: EVQLLESGGGLVQPGGSLRLSCAASGFTFSKYFMFWVRQAPGKGLEWVSVISPSGGMTRYADSVKGRFTISRDNSKNTLYLQMNSLRAEDTAVYYCARVGYGGNSDSWGQGTLVTVSS VL: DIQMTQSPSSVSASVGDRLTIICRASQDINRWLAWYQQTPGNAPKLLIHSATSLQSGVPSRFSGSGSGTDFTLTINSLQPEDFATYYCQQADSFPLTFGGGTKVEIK , state its recorded fold affinity vs original.
0.89
